The following compounds are shown together with reported CHRF288-11 %inh values.
- System: CHRF288-11
- Parameters: species or system AML cell lines (8); Primary HTS, single concentration about 10 uM, Cell Titer Glo viability; log10 luminescence, per cent inhibition relative to cycloheximide control
- condition.set: 72 h, relative to cycloheximide control, log10 luminescence; inhibitor
# output: bare number, implied unit %

Here are 5 compounds together with their reported answers.
{"columns": ["compound", "target", "units", "assay.value"],
 "data": [
  ["Oc1ncnc2[nH]ncc12", "CHRF288-11", "%", 0.3228],
  ["Cn1cc(C2=C(c3cccnc3)C(=O)NC2=O)c2ccccc21", "CHRF288-11", "%", 42.59],
  ["Cc1nc2sc3c(N)ncnc3c2c(C)c1C", "CHRF288-11", "%", 5.518],
  ["C/C(=C\\c1ccc(C(=O)O)cc1)c1ccc2c(c1)C(C)(C)CCC2(C)C", "CHRF288-11", "%", 0.3991],
  ["CCCNc1cccc(-n2ncc3c(N/N=C/c4ccncc4)ncnc32)c1", "CHRF288-11", "%", 2.576]
]}

Input: Would you mind telling me what CHRF288-11 %inh value was observed for "N#Cc1cnc2cnc(NCc3cccnc3)cc2c1Nc1ccc(F)c(Cl)c1" ?
Output: 6.987

Input: Would you mind telling me what CHRF288-11 %inh value was observed for "NCC1(CC(=O)O)CCCCC1" ?
Output: -2.43

Input: Would you mind telling me what CHRF288-11 %inh value was observed for "O=C1NC(=NCCc2ccc(F)cc2)S/C1=C\c1ccc2ncccc2c1" ?
Output: -1.783
